Test system: Plasmodium falciparum
Assay: NOVARTIS: Inhibition of Plasmodium falciparum 3D7 (drug-susceptible) proliferation in erythrocyte-based infection assay
Format: functional, organism-based
Details: Plasmodium falciparum, 3D7
pEC50: −log10 of the molar value.
pEC50 values for the compounds below.
experimentalReadout: pEC50

1) COCCNC(=O)c1ccc2c(=O)n(Cc3ccc4c(c3)OCO4)c(=S)[nH]c2c1
< 6.27
2) CSc1c(C(=O)Nc2ccc(Br)cc2)ccc2c1C(=O)c1ccccc1C2=O
< 5.90
3) O=C(CC(=O)N1CCOCC1)Nc1ccc2nc3n(c(=O)c2c1)CCCCC3
< 5.00
4) O=C(/C=C/c1ccc(Br)cc1)NC(=O)c1ccccc1O
< 5.90

====

System: Plasmodium falciparum
Assay: NOVARTIS: Inhibition of Plasmodium falciparum W2 (drug-resistant) proliferation in erythrocyte-based infection assay
Type: functional, organism-based
Conditions: Plasmodium falciparum, W2; read-out: EC50
experimentalReadout: EC50

1) Cc1ccc(N=C2C(=O)Nc3ccc(C)c(Br)c32)c(O)c1
> 1250 nM
2) COc1ccccc1NC(=O)N(Cc1ccccc1)C(C)c1nc2ccccc2c(=O)n1-c1cc(C)ccc1OC (stereo not given)
< 15.6 nM
3) O=C(NC(=S)Nc1ccc(-c2nc3ccccc3s2)cc1)c1ccc(S(=O)(=O)N2CCCC2)cc1
> 1590 nM
4) c1ccc(Oc2ccc(Nc3nc4nonc4nc3Nc3ccc(Oc4ccccc4)cc3)cc2)cc1
> 1250 nM
5) CC1CC(C)CN(S(=O)(=O)c2ccc(C(=O)Nc3ccc(-c4nc5ccccc5o4)cc3)cc2)C1 (stereo not given)
> 1250 nM

====

Tested on: Plasmodium falciparum
Assay: NOVARTIS: Inhibition of Plasmodium falciparum 3D7 (drug-susceptible) proliferation in erythrocyte-based infection assay
Format: functional, organism-based
Settings: Plasmodium falciparum, 3D7
pEC50: −log10 of the molar value.
experimentalReadout: pEC50

1. Cc1ccc(CC(=O)Nc2ccc(I)cc2)cc1
< 4.95
2. CCOC(=O)N1CCN(C(=O)C(NC(=O)C2CCC(C)CC2)C(C)C)CC1 (stereo not drawn)
< 5.78
3. O=C(COc1cccc(Br)c1)NN=Cc1ccccc1F
< 5.90

====

CC50 values for the molecules below.
Experiment: NOVARTIS: Cytotoxicity against human hepatocellular carcinoma cell line (Huh7)
Type: toxicity, cell-based, Huh-7
Settings: Huh7 cells (hepatocellular carcinoma cell line)
experimentalReadout: CC50

1. Cc1nc2sccn2c1-c1csc(Nc2ccccn2)n1
> 100 µM
2. COCCNC(=S)N(Cc1ccc(F)cc1)Cc1cc2ccc(C)c(C)c2[nH]c1=O
> 10 µM
3. COc1cc(-c2cc(C)c3c(OC)ccc(OC)c3n2)cc2c1OCCN(C(=O)CCn1nc(C)cc1C)C2
> 100 µM
4. Cc1c(/C=C2\SC(=Nc3ccccc3F)N(C3CCCCC3)C2=O)c2ccccc2n1CC(N)=O
> 100 µM
5. CCC(C)(C)c1ccc(OCCCC[n+]2cccc(C)c2C)c(C(C)(C)CC)c1
15.2 µM
6. O=C(Cc1ccccc1)N1CCOc2c(cc(-c3csc4ccccc34)cc2OCCc2ccccn2)C1
> 100 µM
7. Clc1ccc(-c2c[n+](Cc3ccc(Cl)c(Cl)c3)c3n2CCC3)cc1
> 93.6 µM
8. OC(CN1CCN(C2c3ccccc3-c3ccccc32)CC1)Cn1c2ccc(Cl)cc2c2cc(Cl)ccc21 (centres undefined)
> 10 µM
9. COc1cc(NC(C)CCCN(Cc2ccc(Cl)cc2)C(=O)Nc2ccc(Br)cc2)c2ncccc2c1 (centres undefined)
> 5.6 µM
10. O=C1NC(=S)NC1=Cc1cccc(Oc2ccccc2)c1
> 100 µM
11. CCN1/C(=C/c2sc3ccc(OC)cc3[n+]2CC)C=Cc2cc(OC)ccc21
> 10 µM
12. N#C/C(=C\c1ccc(Sc2ccccc2)o1)c1nc2ccccc2[nH]1
> 10 µM
13. CCCCNC(=O)c1ccc2c(c1)N=C(CC(C)c1ccccc1)N(C1CCCCC1)C2 (centres undefined)
48.7 µM
14. Cc1ccn2c(NC(C)(C)CC(C)(C)C)c(-c3ccccc3OC(=O)c3ccc4c(c3)OCO4)nc2c1
> 10 µM

====

Assay: NOVARTIS: Cytotoxicity against human hepatocellular carcinoma cell line (Huh7)
Type: toxicity, cell-based, Huh-7
Details: Huh7 cells (hepatocellular carcinoma cell line)
CC50 values for the molecules below.
experimentalReadout: CC50

1. CCN1C(=S)NC2c3cc(C)ccc3OC13CCCC23 (stereo not given)
> 100 µM
2. CCc1ccc(NC(=O)c2sc3nc(N)c(C#N)c(-c4ccc(OC)c(OC)c4)c3c2N)cc1
> 100 µM
3. CSc1ccc(Cl)c(Cl)c1
2.35 µM
4. CCc1cc2c3c(c1)C1(C(=O)N3C(C)(C)CC2C)C(C#N)=C(N)Oc2cc(C)oc(=O)c21 (stereo not given)
> 100 µM
5. CC1(C)CC(=O)C2=C(C1)NC(=O)CC2c1ccc(C(C)(C)C)cc1 (stereo not given)
> 10 µM
6. CC(C)(C)c1ccc(-c2nc(C34CC5CC(CC(C5)C3)C4)cs2)cc1
> 100 µM
7. CCOc1ccccc1-n1c(N)c(C(=O)Nc2ccc(C)cc2)sc1=S
> 100 µM
8. O=C(C1=C(O)C(=O)N(CCCn2ccnc2)C1c1ccccc1[N+](=O)[O-])c1ccccc1 (stereo not given)
> 100 µM
9. Nc1nc(NCC2CCC(CNS(=O)(=O)c3cccc4ccccc34)CC2)nc2ccccc12 (stereo not given)
> 10 µM
10. O=C(Nc1cccnc1)c1cc(-c2cccnc2)nc2ccc(Br)cc12
> 100 µM
11. Cc1cc2cc(C3C(C#N)=C(N)Oc4c3ccc3ccccc43)c(Cl)nc2cc1Cl (stereo not given)
> 100 µM
12. COc1ccc2nc3cc(Cl)ccc3c(Nc3ccc(O)cc3)c2c1
> 10 µM
13. CCOc1ccc(N2C(=O)c3ccccc3NC2(C)C)cc1
> 100 µM
14. CCOC(=O)CCC(=O)N(C)CCCNc1ccnc2cc(Cl)ccc12
> 10 µM
15. CN(C)c1cc[n+](Cc2c(Cl)cccc2Cl)cc1
0.642 µM
16. O=C(/C=C/c1ccccc1)NNC(=O)c1cccnc1
> 9.45 µM
17. COc1ccc2ccc(OC)c(C3C(C#N)=C(N)OC4=C3C(=O)CC(C)(C)C4)c2c1 (stereo not given)
> 100 µM
18. CCCOC(=O)C1=C(C)NC2=C(C(=O)CC(c3ccc(Cl)cc3)C2)C1c1ccc(Cl)cc1 (stereo not given)
> 69.8 µM
19. CC1(C)CN=C(NCc2ccccc2Cl)S1
34.2 µM
20. CC(=O)c1cccc(CN2CCC(C(=O)Nc3ccc(-n4nc(C)cc4C)cc3)CC2)c1
> 100 µM
21. Oc1ccc(-c2ccccc2)cc1CNCCc1ccc(F)cc1
> 10 µM
22. CCCCCN(C(=O)CCc1ccccc1)C(CC)c1nc2ccccc2c(=O)n1-c1ccc(Cl)cc1C (stereo not given)
> 0.305 µM
23. CC(=O)Nc1ccc(S(=O)(=O)Nc2ccccc2[N+](=O)[O-])cc1
> 10 µM
24. C=C(Cl)CSc1nnc(CCNC(=O)c2ccc(C)cc2)n1-c1ccc(F)cc1
> 100 µM
25. Cc1ccnc(NC(c2ccc(Cl)cc2Cl)c2ccc3cccnc3c2O)c1 (stereo not given)
60.1 µM
26. CC1CN(C2CC(=O)N(c3ccccc3)C2=O)CC(C)O1 (stereo not given)
> 10 µM
27. CCN1/C(=C/c2ccc3ccccc3[n+]2CC)Sc2c1ccc1ccccc21
> 10 µM
28. C#CCNC(=O)c1ccc(OC2CCN(CC(c3ccccc3)c3ccccc3)CC2)c(OC)c1
55 µM
29. CCCCCCc1cc(O)c2c3c(c(=O)oc2c1)CCC(C)C3 (stereo not given)
> 100 µM
30. CCN1CCN(C(=O)CS(=O)(=O)Cc2nc(-c3cccc(OC)c3)oc2C)CC1
> 10 µM
31. c1ccc(-c2nn(-c3ccccc3)[n+](-c3cccc4ccccc34)n2)cc1
> 10 µM
32. CC(C)CC(=O)NCCCCNc1ccnc2cc(Cl)ccc12
> 10 µM
33. CCCCCN1/C(=C\C=C\c2n(CCCCC)c3cc(Cl)c(Cl)cc3[n+]2CC)N(CC)c2cc(Cl)c(Cl)cc21
> 10 µM
34. COC(=O)[C@@H]1C[C@@H](NC(=O)c2ccc(OC)cc2OC)CN1C/C(C)=C/c1ccccc1
> 10 µM
35. COc1cc2c(cc1OC)C(COc1ccc(F)cc1)N(C(=O)c1ccc(OC(C)C)cc1)CC2 (stereo not given)
> 100 µM

====

pEC50 values for the compounds below.
Tested on: Plasmodium falciparum
Test: NOVARTIS: Inhibition of Plasmodium falciparum W2 (drug-resistant) proliferation in erythrocyte-based infection assay
Format: functional, organism-based
Settings: Plasmodium falciparum, W2; read-out: EC50
pEC50: −log10 of the molar value.
experimentalReadout: pEC50

1. CCC12C(=O)C(CC)(C(c3ccccc3)=C1c1ccccc1)C1C(=O)N(c3cccc(C(F)(F)F)c3)C(=O)C12 (stereo unspecified)
6.40
2. CCOC(=O)c1ccc(OCC2c3cc(OC)c(OC)cc3CCN2C(=O)Nc2ccc(Cl)cc2)cc1 (stereo unspecified)
6.53
3. CC(=O)Nc1nc(C)c(-c2csc(Nc3ccc(Br)cc3)n2)s1
6.07
4. OCc1nc2ccccc2n1Cc1ccccc1F
5.84
